- test description: Clearance in dog at 1 mg/kg, iv
- Format: ADME, organism-based, Canis lupus familiaris
- Set-up: dose 1 mg/kg, route intravenous
- condition info: in vivo
Quick rule for you: clearance under 0.6 L/h/kg gets 1, anything else gets 0.

1) COc1ccc2c(O[C@@H]3C[C@H]4C(=O)N[C@]5(P(=O)(O)Cc6ccccc6Cl)C[C@H]5/C=C/CCCCC[C@H](NC(=O)OC5CCCC5)C(=O)N4C3)cc(-c3csc(NC(C)C)n3)nc2c1	1
2) COc1ccc2c(O[C@@H]3C[C@H]4C(=O)N[C@]5(P(=O)(O)Cc6ccccc6Cl)C[C@H]5CCCCCCC[C@H](NC(=O)OC5CCCC5)C(=O)N4C3)cc(-c3csc(NC(C)C)n3)nc2c1	1
3) COc1ccc2c(O[C@@H]3C[C@H]4C(=O)N[C@]5(P(=O)(O)Cc6ccccc6OC)C[C@H]5CCCCCCC[C@H](NC(=O)OC5CCCC5)C(=O)N4C3)cc(-c3csc(NC(C)C)n3)nc2c1	1
4) COc1ccc2c(O[C@@H]3C[C@H]4C(=O)N[C@]5(P(=O)(O)Cc6ccccc6)C[C@H]5CCCCCCC[C@H](NC(=O)OC5CCCC5)C(=O)N4C3)cc(-c3csc(NC(C)C)n3)nc2c1	1
5) COc1ccc2c(O[C@@H]3C[C@H]4C(=O)N[C@]5(P(=O)(O)Cc6ccccc6OC)C[C@H]5/C=C/CCCCC[C@H](NC(=O)OC5CCCC5)C(=O)N4C3)cc(-c3csc(NC(C)C)n3)nc2c1	0
6) C=C[C@@H]1C[C@]1(NC(=O)[C@@H]1C[C@@H](Oc2cc(-c3csc(NC(C)C)n3)nc3cc(OC)ccc23)CN1C(=O)[C@@H](NC(=O)OC1CCCC1)C(C)(C)C)P(=O)(O)O	0

###

- test description: Oral bioavailability in dog at 3 mg/kg
- Type: ADME, organism-based, Canis lupus familiaris
- condition info: in vivo
readout kind: bioavailability (%)

1. C=C[C@@H]1C[C@]1(NC(=O)[C@@H]1C[C@@H](Oc2cc(-c3csc(NC(C)C)n3)nc3cc(OC)ccc23)CN1C(=O)[C@@H](NC(=O)OC1CCCC1)C(C)(C)C)P(=O)(O)O	0.5
2. C=C[C@@H]1C[C@]1(NC(=O)[C@@H]1C[C@@H](Oc2cc(-c3csc(NC(C)C)n3)nc3cc(OC)ccc23)CN1C(=O)[C@@H](NC(=O)OC1CCCC1)C(C)(C)C)P(=O)(O)Cc1ccccc1	4.6

###

- test description: Oral bioavailability in rat at 10.7 mg/kg, po
- Type: ADME, organism-based
- condition info: in vivo
readout kind: bioavailability (%)

1) C=C[C@@H]1C[C@]1(NC(=O)[C@@H]1C[C@@H](Oc2cc(-c3csc(NC(C)C)n3)nc3cc(OC)ccc23)CN1C(=O)[C@@H](NC(=O)OC1CCCC1)C(C)(C)C)P(C)(=O)O	0.4
